Provide the reported pIC50 of each item.
- subject-of-test: AtIspF (Arabidopsis thaliana, UniProt Q9CAK8)
- Sequence (Q9CAK8 53-231): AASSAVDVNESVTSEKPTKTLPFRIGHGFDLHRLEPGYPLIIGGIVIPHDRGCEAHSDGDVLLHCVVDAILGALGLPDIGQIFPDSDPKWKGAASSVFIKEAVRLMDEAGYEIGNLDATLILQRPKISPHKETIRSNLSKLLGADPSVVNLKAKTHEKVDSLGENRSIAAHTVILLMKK
- assay-procedure: University of Hamburg photometric enzymatic inhibition assay AtIspF
- Type: biochemical
- recorded-conditions: read-out: AtIspF IC50
pIC50: −log10 of the molar value.

Recorded pIC50, per entry:
>>> value_observed("FC(F)(F)c1ccc(-c2nnc(-c3cc4ccccc4[nH]3)o2)cc1 [HGN-214]")
"< 3.00"
>>> value_observed("Cc1ccc(-c2nnc(-c3cc4ccccc4[nH]3)o2)cc1 [HGN-242]")
"< 3.00"
>>> value_observed("COc1ccc(-c2nnc(-c3nc4ccccc4s3)o2)cc1 [HGN-336]")
"< 3.30"
>>> value_observed("Cc1nnc(-c2cc3ccccc3[nH]2)o1 [HGN-209]")
"< 3.00"

Proceeding to the next compound to report its pIC50.
// compound FC(F)(F)c1ccc(-c2nnc(-c3nc4ccccc4[nH]3)o2)cc1 [HGN-422] , assay AtIspF (Arabidopsis thaliana, UniProt Q9CAK8), pIC50 value: < 3.30
